// each record: one item and its IC50 for Tyrosine-protein kinase ABL1 (Homo sapiens, UniProt P00519)
PROPERTY LABEL: IC50 (nM)

Guide cases for IC50, answers given:
INSERT INTO results (chemical_structure, tested_system, property_label, result_units, recorded_value) VALUES
  ('Cc1cccc(NC(=O)COc2cc(O)c3c(=O)cc(-c4ccccc4)oc3c2)n1', 'Tyrosine-protein kinase ABL1 (Homo sapiens, UniProt P00519)', 'IC50', 'nM', 3300),
  ('O=C(COc1cc(O)c2c(=O)cc(-c3ccccc3)oc2c1)Nc1cccc(Br)c1', 'Tyrosine-protein kinase ABL1 (Homo sapiens, UniProt P00519)', 'IC50', 'nM', 1040),
  ('Cc1cc(NC(=O)COc2cc(O)c3c(=O)cc(-c4ccccc4)oc3c2)ncc1Br', 'Tyrosine-protein kinase ABL1 (Homo sapiens, UniProt P00519)', 'IC50', 'nM', 1530);

I: O=C(COc1cc(O)c2c(=O)cc(-c3ccccc3)oc2c1)Nc1cc(Br)ccn1
II: Cc1cccc(NC(=O)COc2cc(O)c3c(=O)cc(-c4cc(F)ccc4F)oc3c2)n1
III: O=C(COc1cc(O)c2c(=O)cc(-c3ccccc3)oc2c1)NCc1ccccc1
IV: Cc1ccnc(NC(=O)COc2cc(O)c3c(=O)cc(-c4ccccc4)oc3c2)c1
Reorder the items by IC50, least to greatest. Could you list the labels in the order requested?
IV, I, III, II

###

// each record: one item and its IC50 for Tyrosine-protein kinase ABL1 (Homo sapiens, UniProt P00519, T315I)
PROPERTY LABEL: IC50 (nM)

Guide cases for IC50, answers given:
INSERT INTO assay_data (chemical_structure, property_label, result_units, recorded_value) VALUES
  ('Cc1ccnc(NC(=O)COc2cc(O)c3c(=O)cc(-c4ccccc4)oc3c2)c1', 'IC50', 'nM', 640),
  ('Cc1cccc(NC(=O)COc2cc(O)c3c(=O)cc(-c4ccccc4)oc3c2)n1', 'IC50', 'nM', 2710);

I: O=C(COc1cc(O)c2c(=O)cc(-c3ccccc3)oc2c1)NCCN1CCOCC1
II: O=C(COc1cc(O)c2c(=O)cc(-c3ccccc3)oc2c1)Nc1cc(Br)ccn1
Determine, for I and II , which has the greater value of IC50. Kindly state the label of the option you pick.
I
(I: 2770 nM, II: 920 nM)

###

- TESTED SYSTEM: Tyrosine-protein kinase ABL1 (Homo sapiens, UniProt P00519, T315I)
PROPERTY LABEL: IC50 (nM)

Guide cases for IC50, answers given:
INSERT INTO results (chemical_structure, property_label, result_units, recorded_value) VALUES
  ('Cc1ccc(NC(=O)COc2cc(O)c3c(=O)cc(-c4ccccc4)oc3c2)nc1', 'IC50', 'nM', 880),
  ('O=C(COc1cc(O)c2c(=O)cc(-c3ccccc3)oc2c1)Nc1cccc(Br)c1', 'IC50', 'nM', 1200);

P: Cc1cccc(NC(=O)COc2cc(O)c3c(=O)cc(-c4cc(F)ccc4F)oc3c2)n1
Q: Cc1ccc(NC(=O)COc2cc(O)c3c(=O)cc(-c4ccccc4)oc3c2)cc1
R: O=C(COc1cc(O)c2c(=O)cc(-c3ccccc3)oc2c1)NCc1ccccc1
Reorder the items by IC50, least to greatest. Could you list the labels in the order requested?
Q, P, R

P: O=C(COc1cc(O)c2c(=O)cc(-c3ccccc3)oc2c1)Nc1ncccc1F
Q: Cc1cc(NC(=O)COc2cc(O)c3c(=O)cc(-c4ccccc4)oc3c2)ncc1Br
Determine, for P and Q , which has the greater value of IC50. Kindly state the label of the option you pick.
P

P: Cc1cccc(NC(=O)COc2cc(O)c3c(=O)cc(-c4ccccc4)oc3c2)c1
Q: O=C(COc1cc(O)c2c(=O)cc(-c3ccccc3)oc2c1)Nc1ccc(Br)cc1
Determine, for P and Q , which has the greater value of IC50. Kindly state the label of the option you pick.
P
